# Subject Of Test: T1, Human TIM-3 Human Fc tagged protein (human, fluorescently labeled with HiLyte Fluor 555 (sites not given))
# T1 construct: Bought construct; also called TIM-3 protein tagged with human Fc; ACROBiosystems catalog no: TM3-H5258
# Run Description: capture slide probed with labeled TIM-3-Fc;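 further: IgG from single CD138-enriched plasma cells, isolated from lymphocytes, immobilized on a derivatized glass slide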

Binder	binding result
SCT-Fa090 (antibody, V domains shown, murine IgG) VH: QIQLVQSGPEMKKPGETVKISCKASGYIFRTYGMSWVKQAPGKGLEWMGWINTYSGEPTYADDFKGRFAFSLETSANTAYLQINNLKNEDTATFFCARAQHYFDWWGQGTTLTVSS VL: DIKMTQSPSSMYASLGERVTITCKASQDIDSYLNWFQQKPGKSPKTLIYRATRLVDGVPSRFSGSGSGQDYSLTISSLEYEDMGIYYCLQYDEFPYTFGGGTKLEIK	binds
